SYSTEM TESTED: UniProt Q9NWZ3
METHOD SUMMARY: 2-hour 10 μM ATP Biochemical Assay (MesoScale Detection format; IRAK4 phosphorylation of biotin labeled IRAK1 activation loop peptide)
RUN PARAMETERS: 0.1 nM IRAK4
MEASURED PARAMETER: IC50 (nM)
// return numeric value only (unit: nM, not printed)

Find the recorded IC50 belonging to COc1cc2nc(C3CC34CCOCC4)cn2cc1C(=O)Nc1cccc(C(F)(F)F)n1 (stereo not shown) [Example 40] and report it. 9

---

SYSTEM TESTED: IRAK4 (Homo sapiens)
Sequence (Q9NWZ3 whole entry): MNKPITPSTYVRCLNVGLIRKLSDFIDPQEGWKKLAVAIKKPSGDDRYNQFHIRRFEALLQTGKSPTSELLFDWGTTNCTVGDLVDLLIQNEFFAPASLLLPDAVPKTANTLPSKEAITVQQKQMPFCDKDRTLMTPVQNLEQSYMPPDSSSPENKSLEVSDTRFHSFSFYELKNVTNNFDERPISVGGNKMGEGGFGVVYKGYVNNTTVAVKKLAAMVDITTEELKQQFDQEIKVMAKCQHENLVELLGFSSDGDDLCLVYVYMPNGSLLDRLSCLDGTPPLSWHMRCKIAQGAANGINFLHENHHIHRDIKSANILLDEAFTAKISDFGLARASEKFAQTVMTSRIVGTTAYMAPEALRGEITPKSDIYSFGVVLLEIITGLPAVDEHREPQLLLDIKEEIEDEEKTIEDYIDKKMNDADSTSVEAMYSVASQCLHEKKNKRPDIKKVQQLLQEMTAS
METHOD SUMMARY: biochemical
Let's look at some molecules and their measured IC50.
// return numeric value only (unit: nM, not printed)

{"columns": ["MOLECULE", "READOUT NUMBER"],
 "data": [
  ["CCOc1nc(C(=O)Nc2cc(F)cn(C)c2=O)cn2cc([C@@H]3CCCOC3)nc12 (single isomer, unassigned)", 6.3],
  ["CC(C)Oc1cc2nc(C3COCCO3)cn2cc1C(=O)Nc1cnn2cccnc12 (stereo not shown)", 2],
  ["CCOc1cccc(NC(=O)c2cn3cc(C4CC4)nc3cc2OC(C)C)n1", 8.9],
  ["COc1cc2nc(C3CCOCC3)cn2cc1C(=O)Nc1cccc2ccnn12", 4.1],
  ["CC(C)(C)c1cn2cc(C(=O)Nc3cccc(C(F)F)n3)c(OC3CCC3)cc2n1", 2],
  ["CC(C)Oc1nc2nc(C34CCOC(C)(C3)C4)cn2cc1C(=O)Nc1cccc(C(F)F)n1", 0.2],
  ["CC(C)Oc1nc2nc([C@@]34CC[C@@](C)(C3)OC4)cn2cc1C(=O)Nc1cccn(C(F)F)c1=O (single isomer, unassigned)", 0.1],
  ["CC(C)Oc1cc2nc([C@@]34CC[C@@](C)(C3)OC4)cn2cc1C(=O)Nc1cccn(C)c1=O (single isomer, unassigned)", 0.6],
  ["CCOc1cc2nc(C[C@H]3CCOC3)cn2cc1C(=O)Nc1cccc(C(F)F)n1 (single isomer, unassigned)", 1.7],
  ["CC12CCC(c3cn4cc(C(=O)Nc5cccn(C(F)F)c5=O)c(OC5CC5)cc4n3)(CO1)C2 (stereo not shown)", 1.5]
]}

Find the recorded IC50 belonging to "Cc1cnc2c(NC(=O)c3cn4cc(C56CCC(C)(CC5)CO6)nc4nc3OC(C)C)cnn2c1" and report it. 0.2

Subsequent entry: Cn1ccc(NC(=O)c2cn3cc([C@@]45CC[C@@](C)(C4)OC5)nc3cc2OC2CCCC2)n1 (single isomer, unassigned) 2.3

Subsequent entry: "COCc1nc2nc(C34COC(C)(C3)C4)cn2cc1C(=O)Nc1cnn2cc(C)cnc12" 6530

Subsequent entry: "CCCOc1nc(C(=O)Nc2cccnc2OC)cn2cc(C34COC(C)(C3)C4)nc12" 1

Subsequent entry: COc1cc2nc(C3CCOCC3)cn2cc1C(=O)Nc1ccn(C2CC2(F)F)n1 (stereo not shown) 166

Subsequent entry: "CC(C)Oc1nc2nc(C34COC(C)(C3)C4)cn2cc1C(=O)Nc1ccn(C(F)(F)F)n1" 8.2

Subsequent entry: "CC(C)Oc1cc2nc(C34COC(C3)C4)cn2cc1C(=O)Nc1ccn(C)n1" 8.6

Subsequent entry: "CCOc1cc2nc(C(C)(C)C#N)cn2cc1C(=O)Nc1cccc(C(F)F)n1" 13.4

Subsequent entry: "COc1cc2nc(C3CCOCC3)cn2cc1C(=O)Nc1ccc(C)n(C)c1=O" 559

Subsequent entry: CC(Oc1cc2nc(C34COC(C)(C3)C4)cn2cc1C(=O)Nc1cccc(C(F)F)n1)C(F)(F)F (stereo not shown) [Example 323] 0.7

Subsequent entry: "Cn1ccc(NC(=O)c2cn3cc(C4CC4)nc3c(OC3CC3)n2)n1" 26.4

Subsequent entry: "COc1cccc(NC(=O)c2cn3cc(C(F)F)nc3cc2OC(C)C)n1" 17.8
